- Test system: OVCAR-3 ovarian
- protocol notes: NCI-60 one-dose screen, 48 h (100 = growth as untreated, 0 = no growth, -100 = all killed)
- experimental conditions: 10 µM unless noted
Compounds without any hit were thinned out: in the full panel of roughly 83,000, 20% have a hit.
Rule for this label: rule met means growth is less than 50%; rule not met means growth is at least 50%.

INSERT INTO measurements (compound, assigned_class) VALUES
  ('CCCCn1c(-c2ccc(F)cc2)nc2cc(OC)c(OC)cc2c1=O', 'rule not met'),
  ('COc1cc2cc(C(=O)Nc3ccccc3)c(N)nc2cc1OC', 'rule met'),
  ('COc1ccc(C2C3=C(COC3=O)N(CCO)c3cc(OC)c(OC)cc32)cc1 (configuration not stated)', 'rule not met'),
  ('O=C(CN1CCN(c2ccccc2)CC1)N1CCN(c2nnc(-c3ccc(Cl)cc3)c(-c3ccc(Cl)cc3)n2)CC1', 'rule not met'),
  ('COc1ccc(C2=CC(c3ccc(OC)cc3Br)N3C=CSC3=N2)cc1 (configuration not stated)', 'rule met');

Now for a further compound.
stdin: is_below(growth, 50%) for COc1cc2nccc(Oc3ccc(NC(=O)C4(C(=O)Nc5c(F)cc(F)cc5F)CC4)cc3)c2cc1Oc1ccc(N)cn1 ?
stdout: rule not met
